# system_tested: BRM (Homo sapiens)
# Sequence (P51531 whole entry): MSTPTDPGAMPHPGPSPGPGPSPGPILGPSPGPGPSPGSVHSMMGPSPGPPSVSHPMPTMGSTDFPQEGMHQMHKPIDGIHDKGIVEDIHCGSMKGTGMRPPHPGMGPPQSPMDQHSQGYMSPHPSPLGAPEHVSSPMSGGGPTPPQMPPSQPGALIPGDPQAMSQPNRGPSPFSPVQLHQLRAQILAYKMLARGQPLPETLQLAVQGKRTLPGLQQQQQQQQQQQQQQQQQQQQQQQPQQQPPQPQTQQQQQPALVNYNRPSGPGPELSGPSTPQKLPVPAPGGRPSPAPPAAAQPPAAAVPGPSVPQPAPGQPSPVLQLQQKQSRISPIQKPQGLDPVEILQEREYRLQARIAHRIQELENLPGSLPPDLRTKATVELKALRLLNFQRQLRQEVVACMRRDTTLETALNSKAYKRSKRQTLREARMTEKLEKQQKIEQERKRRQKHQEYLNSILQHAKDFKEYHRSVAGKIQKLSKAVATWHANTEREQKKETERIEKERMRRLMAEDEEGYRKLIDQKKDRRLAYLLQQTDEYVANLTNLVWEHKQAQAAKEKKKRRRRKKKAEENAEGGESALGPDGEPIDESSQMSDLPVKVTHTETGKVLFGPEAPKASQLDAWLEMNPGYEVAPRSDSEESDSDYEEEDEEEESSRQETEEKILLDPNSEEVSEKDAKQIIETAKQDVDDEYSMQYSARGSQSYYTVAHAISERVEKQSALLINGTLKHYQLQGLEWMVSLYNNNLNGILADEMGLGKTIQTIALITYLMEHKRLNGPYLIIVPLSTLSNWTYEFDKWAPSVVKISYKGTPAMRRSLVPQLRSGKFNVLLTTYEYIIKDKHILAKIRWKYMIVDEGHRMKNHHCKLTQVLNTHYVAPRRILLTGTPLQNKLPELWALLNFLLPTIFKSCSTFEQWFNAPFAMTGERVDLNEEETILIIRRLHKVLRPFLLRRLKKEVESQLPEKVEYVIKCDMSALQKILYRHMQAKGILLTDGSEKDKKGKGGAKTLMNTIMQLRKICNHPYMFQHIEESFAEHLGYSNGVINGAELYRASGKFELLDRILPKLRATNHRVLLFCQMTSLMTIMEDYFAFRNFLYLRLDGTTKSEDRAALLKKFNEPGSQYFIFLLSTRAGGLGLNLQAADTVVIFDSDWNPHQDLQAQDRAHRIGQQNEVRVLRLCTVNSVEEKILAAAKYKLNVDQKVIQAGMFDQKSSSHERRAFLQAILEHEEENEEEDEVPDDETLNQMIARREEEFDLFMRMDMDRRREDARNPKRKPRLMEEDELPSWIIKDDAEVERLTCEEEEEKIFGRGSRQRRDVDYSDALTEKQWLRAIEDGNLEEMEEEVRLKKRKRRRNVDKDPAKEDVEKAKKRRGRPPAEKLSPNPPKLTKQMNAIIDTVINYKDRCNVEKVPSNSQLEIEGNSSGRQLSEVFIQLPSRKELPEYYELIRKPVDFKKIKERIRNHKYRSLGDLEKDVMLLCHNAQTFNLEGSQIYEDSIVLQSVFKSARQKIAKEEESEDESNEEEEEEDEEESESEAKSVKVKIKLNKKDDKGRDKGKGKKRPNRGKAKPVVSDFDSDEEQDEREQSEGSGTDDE
# assay_overview: ATPase catalytic activity assay of BRM (ADP-Glo)
# Format: biochemical
# details: read-out: BRM IC50 (μM)*
reported_endpoint: IC50

molecule | system_tested | reported_endpoint | assay_result
Cn1ncc2ccc(-c3csc(NC(=O)CNC(=O)c4ccc5c(c4)[C@@](C)(CO)CC5)n3)cc21 [Compound 261] | BRM (Homo sapiens) | IC50 | 1 to 5 µM
CC(C)(C#N)c1cccc(C(=O)NCC(=O)Nc2nc(-c3cccc(-c4ccncc4)c3)cs2)c1 [Compound 87] | BRM (Homo sapiens) | IC50 | 0.1 to 1 µM
C[C@@]1(C#N)COCc2ccc(C(=O)NCC(=O)Nc3nc(-c4cccc(F)c4)cs3)cc21 [Compound 322] | BRM (Homo sapiens) | IC50 | < 0.1 µM
Cc1nccc(-c2cccc(-c3csc(NC(=O)CNC(=O)c4cccc(C(C)(C)CN)c4)n3)c2)n1 [Compound 100] | BRM (Homo sapiens) | IC50 | < 0.1 µM
Cc1cc(-c2cccc(-c3csc(NC(=O)CNC(=O)c4ccc5c(c4)[C@](C)(CO)CCC5)n3)n2)ncn1 [Compound 208] | BRM (Homo sapiens) | IC50 | 0.1 to 1 µM
NCC1(c2cccc(C(=O)NCC(=O)Nc3nc(-c4cccc(-c5ccncc5)c4)cs3)c2)CC1 [Compound 72] | BRM (Homo sapiens) | IC50 | 0.1 to 1 µM
C[C@@H]1CN(c2cccc(-c3csc(NC(=O)CNC(=O)c4ccc(F)c(C(C)(C)CO)c4)n3)c2)C[C@H](C)O1 [Compound 200] | BRM (Homo sapiens) | IC50 | < 0.1 µM
C[C@@H]1CN(c2cccc(-c3csc(NC(=O)CNC(=O)c4ccc5c(c4)C(F)(C(F)F)COC5)n3)c2)C[C@H](C)O1 (stereo in doubt) [Compound 308] | BRM (Homo sapiens) | IC50 | < 0.1 µM
Cc1cc(-c2cccc(-c3csc(NC(=O)CNC(=O)c4ccc5c(c4)[C@](C)(CO)CC5)n3)c2)nc(C)n1 [Compound 228] | BRM (Homo sapiens) | IC50 | < 0.1 µM

* * *

# system_tested: BRG-1 (Homo sapiens, UniProt P51532)
# Sequence (P51532 whole entry): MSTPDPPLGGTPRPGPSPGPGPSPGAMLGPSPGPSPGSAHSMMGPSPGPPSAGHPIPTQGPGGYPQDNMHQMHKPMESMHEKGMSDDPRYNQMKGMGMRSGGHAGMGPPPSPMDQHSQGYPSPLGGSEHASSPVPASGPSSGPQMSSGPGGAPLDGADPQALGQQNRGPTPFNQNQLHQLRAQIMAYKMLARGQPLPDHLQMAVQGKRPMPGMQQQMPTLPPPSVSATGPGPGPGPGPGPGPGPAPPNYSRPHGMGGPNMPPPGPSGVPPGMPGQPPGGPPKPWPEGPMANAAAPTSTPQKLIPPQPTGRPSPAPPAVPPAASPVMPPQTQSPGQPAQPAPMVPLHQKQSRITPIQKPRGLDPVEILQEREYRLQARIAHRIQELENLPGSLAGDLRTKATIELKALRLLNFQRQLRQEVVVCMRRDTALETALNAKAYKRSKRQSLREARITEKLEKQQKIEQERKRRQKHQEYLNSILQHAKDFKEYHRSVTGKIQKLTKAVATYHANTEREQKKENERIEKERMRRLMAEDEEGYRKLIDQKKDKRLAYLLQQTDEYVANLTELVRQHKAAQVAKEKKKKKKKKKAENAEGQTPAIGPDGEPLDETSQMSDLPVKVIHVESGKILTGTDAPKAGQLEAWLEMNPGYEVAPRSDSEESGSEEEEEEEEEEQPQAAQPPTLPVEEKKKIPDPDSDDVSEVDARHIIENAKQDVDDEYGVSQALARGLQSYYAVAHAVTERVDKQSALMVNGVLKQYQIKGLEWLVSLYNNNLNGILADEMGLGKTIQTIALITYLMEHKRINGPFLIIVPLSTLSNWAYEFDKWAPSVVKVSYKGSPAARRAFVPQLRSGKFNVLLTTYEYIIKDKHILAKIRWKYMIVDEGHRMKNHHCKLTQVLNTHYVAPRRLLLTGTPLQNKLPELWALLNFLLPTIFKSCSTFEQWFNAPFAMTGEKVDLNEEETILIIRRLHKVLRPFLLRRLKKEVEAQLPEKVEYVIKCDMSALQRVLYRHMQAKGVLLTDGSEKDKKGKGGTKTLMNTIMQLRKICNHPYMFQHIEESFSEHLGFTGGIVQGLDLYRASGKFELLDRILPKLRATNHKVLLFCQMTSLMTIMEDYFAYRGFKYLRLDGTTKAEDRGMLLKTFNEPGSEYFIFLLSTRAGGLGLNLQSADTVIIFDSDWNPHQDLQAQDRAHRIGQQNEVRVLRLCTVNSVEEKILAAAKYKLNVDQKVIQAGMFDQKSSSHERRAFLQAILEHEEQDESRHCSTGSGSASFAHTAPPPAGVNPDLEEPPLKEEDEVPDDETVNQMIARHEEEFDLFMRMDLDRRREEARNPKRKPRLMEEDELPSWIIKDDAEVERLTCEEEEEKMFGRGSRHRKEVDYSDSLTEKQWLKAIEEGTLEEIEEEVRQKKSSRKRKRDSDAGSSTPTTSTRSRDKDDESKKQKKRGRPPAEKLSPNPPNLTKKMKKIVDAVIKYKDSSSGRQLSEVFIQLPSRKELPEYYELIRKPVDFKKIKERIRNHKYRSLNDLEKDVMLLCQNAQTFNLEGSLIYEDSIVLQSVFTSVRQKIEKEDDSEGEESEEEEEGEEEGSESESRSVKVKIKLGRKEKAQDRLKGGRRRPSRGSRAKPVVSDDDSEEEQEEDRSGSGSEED
# assay_overview: ATPase catalytic activity assay of BRG-1 (ADP-Glo)
# Type: biochemical
# details: ATPase catalytic activity, ADP-Glo; read-out: BRG1 IC50 (μM)*

molecule | IC50
COC(=O)N1CCC[C@H](c2csc(NC(=O)CNC(=O)c3ccc4c(c3)C(C)(F)COC4)n2)C1 (stereo in doubt) [Compound 301] | 1 to 5 µM
C[C@@]1(C#N)COCc2ccc(C(=O)NCC(=O)Nc3nc(-c4cccc([C@@H]5CC5(F)F)n4)cs3)cc21 [Compound 386] | 0.1 to 1 µM
C[C@@H]1CN(c2cccc(-c3csc(NC(=O)CNC(=O)c4cccc5c4OCC[C@]5(C)C#N)n3)c2)C[C@H](C)O1 [Compound 148] | > 5 µM
Cc1cc(-c2cccc(-c3csc(NC(=O)CNC(=O)c4ccc5c(c4)[C@](C)(CN)CCC5)n3)c2)cc(C)n1 [Compound 225] | > 5 µM
C[C@@H]1CN(c2cccc(-c3csc(NC(=O)CNC(=O)c4ccc5c(c4)S(=O)(=O)CCCC5)n3)c2)C[C@H](C)O1 [Compound 128] | < 0.1 µM
CC1(CO)CCc2ccc(C(=O)NCC(=O)Nc3nc(-c4cccc(-c5ccncc5)c4)cs3)cc21 (single isomer, unassigned) [Compound 107] | 0.1 to 1 µM
CC1OCCc2cc(C(=O)NCC(=O)Nc3nc(-c4cccc(N5C[C@@H](C)O[C@@H](C)C5)n4)cs3)ccc21 (stereo partly shown) [Compound 271] | 1 to 5 µM
CC(C)(C#N)c1cccc(C(=O)NCC(=O)Nc2nc(-c3cccc(-c4ccncc4)c3)cs2)c1 [Compound 87] | > 5 µM
C[C@@H]1CN(c2cccc(-c3csc(NC(=O)CNC(=O)c4ccc5c(c4)[C@H]([C@H](C)O)CC5)n3)n2)C[C@H](C)O1 [Compound 141] | > 5 µM
Cc1cc(-c2cccc(-c3csc(NC(=O)CNC(=O)c4ccc5c(c4)[C@](C)(CO)CCC5)n3)n2)ncn1 [Compound 208] | 1 to 5 µM
